biological target: HLA-A*02:06; assay: IEDB peptide-MHC binding, purified MHC/competitive/radioactivity; filed as Kd, often an IC50 or EC50 that approximates it; bounds were set here for any values at or beyond the usual limits of such assays; conditions: source organism: Vaccinia virus WR
pKd: −log10 of the molar value.
Measured Attribute: pKd

Give the measured pKd of `LTHGADPNA` . ≤ 4.53

Give the measured pKd of `LLKETIQKDI` . ≤ 4.63

Give the measured pKd of `AFEFINSLLK` . ≤ 4.37

Give the measured pKd of `NIREGTHVLL` . ≤ 4.46

Give the measured pKd of `SITPNNLNKI` . ≤ 4.16

Give the measured pKd of `TAEQLSKYV` . ≤ 4.62

---

For each entry below, report its Kd value.
target: HLA-A*02:03; experiment: IEDB peptide-MHC binding, purified MHC/competitive/radioactivity; filed as Kd, often an IC50 or EC50 that approximates it; bounds were set here for any values at or beyond the usual limits of such assays; details: source organism: Vaccinia virus WR
Write the value in µM as a bare number.

Fill in the recorded Kd for this sequence, with HLA-A*02:03 as test system: `LTHGADPNA` 10.5

Fill in the recorded Kd for this sequence, with HLA-A*02:03 as test system: `VATFRDMLL` 9.94

Fill in the recorded Kd for this sequence, with HLA-A*02:03 as test system: `TLVPVLEKKV` 0.1

Fill in the recorded Kd for this sequence, with HLA-A*02:03 as test system: `VILPDKIDGL` 10.8

Fill in the recorded Kd for this sequence, with HLA-A*02:03 as test system: `PIIYSKAGNI` 0.139

Fill in the recorded Kd for this sequence, with HLA-A*02:03 as test system: `ELAYYNSCM` 0.136

Fill in the recorded Kd for this sequence, with HLA-A*02:03 as test system: `VVKDKIKLPT` 8.6

Fill in the recorded Kd for this sequence, with HLA-A*02:03 as test system: `TAEQLSKYV` 8.9

Fill in the recorded Kd for this sequence, with HLA-A*02:03 as test system: `LLEMKYALI` 0.135
